The values you see were collected from ChEMBL document CHEMBL5303304.

We begin with a simple list: items and their reported Growth Rate.
system: Fibroblast; test: Incucyte cell viability with human fibroblast; assay type: toxicity, cell-based; details: 24 h, 10 µM, compound concentration 10 uM, replicate number 2; further: unitless GR value; below 1 slowed growth and below 0 cell loss

{"columns": ["Compound", "Growth Rate"],
 "data": [
  ["COc1cc(-c2cncc(-c3cnn(C4CCNCC4)c3)c2)cc(OC)c1OC", 0.9],
  ["Cl.O=S(=O)(c1cccc2c(I)cccc12)N1CCCNCC1", 0.96],
  ["Cc1ccc2c(N)c(C(=O)NC3CCc4cc(N5CC6CCC(C5)N6)ccc4C3)sc2n1.O=CO (stereo not given)", -0.21],
  ["CNC(=O)COc1cc2cc(Nc3nc(N4CCC(C(=O)N(C)C)CC4)ncc3Cl)cc(OC)c2n(C)c1=O", 0.87],
  ["C[C@@H](COCCC(=O)N1CCN(c2ncc(C(F)(F)F)cn2)CC1)Nc1cn[nH]c(=O)c1C(F)(F)F", 0.15],
  ["CC1(C)Oc2ncnc(N)c2N=C1c1ccc([C@H]2CC[C@H](CC(=O)O)CC2)cc1", 0.97],
  ["CN(CC(=O)Nc1ccc(F)c(F)c1F)C(=O)c1ccc2c(c1)OCCO2", 0.87],
  ["COc1cc(C(=O)O)ncc1C#Cc1ccccc1NS(=O)(=O)c1cccc2c(N(C)C)ccnc12", 0.93],
  ["O=C(O)c1cc(-c2ccccc2)ccc1O", 0.79],
  ["Nc1nc(-c2nn(Cc3ccccc3F)c3ncccc23)ncc1C1CC1", 0.8]
]}
